The values you see were collected from the supplement of paper PMC6757056.

B1: library; a variant is named by its letters at N, in order (parent)
chain: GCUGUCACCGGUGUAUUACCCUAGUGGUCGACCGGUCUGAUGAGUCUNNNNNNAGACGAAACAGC

Variants of: B1
Assay: normalized RNA/DNA level with ligand (relative to sTRSVctl = 100) (log10 (% of sTRSVctl)); ligand: hypoxanthine (xanthine aptamer); higher = less ribozyme self-cleavage, higher mRNA level
Conditions: ligand concentration (+) RNA-Seq: 5 mM, HEK293T, reporter: mCherry (pCS4076), ligand present: yes
The following variants are listed with their measured normalized RNA/DNA level with ligand (log10) values.

Please review the following examples before continuing.
| Variant string | Result |
| --- | --- |
| GUUCAU | 1.91 |
| GAUAAU | 1.91 |
| UCUAGU | 1.99 |
| GAAAAU | 1.92 |
| GCAGAG | 1.78 |

Could you now consider this next variant?
Request: For the variant UUACCU , what normalized RNA/DNA level with ligand (log10) is on record?
Result: 1.99
